molecular target: human c-Met (Homo sapiens); construct: Recombinant GST-tagged cytosolic domains of human c-Met; 6xHis; made in house; host or cells: Sf9 or Sf21 insect cells (baculovirus); assay: in vitro kinase assay (homogeneous time-resolved tyrosine kinase assay, METKA); format: biochemical; conditions: recombinant GST-tagged c-Met cytosolic domain, HTRF, 50 μM MgATP; read-out: Biological Activity (METKA IC50) Activity Code
pIC50: −log10 of the molar value.

{"columns": ["MOLECULE", "pIC50"],
 "data": [
  ["N#Cc1cc(F)cc(-n2ccc(=O)c(COc3ccc4ncccc4c3)n2)c1", "> 7.00"],
  ["Cn1cc(-n2ccc(=O)c(NCc3ccc4ncccc4c3)n2)cn1", "6.00 to 7.00"],
  ["CCOC(=O)c1ccc(OCc2nn(-c3cnn(C)c3)ccc2=O)cc1", "6.00 to 7.00"],
  ["CCOc1cnc2ccc(OCc3nn(-c4ccc(F)c(F)c4)ccc3=O)cc2c1", "> 7.00"],
  ["COCCOc1cnc2ccc(CCc3nn(-c4cnn(C)c4)ccc3=O)cc2c1", "> 7.00"],
  ["CCn1cc(-n2ccc(=O)c(COc3ccc4ncccc4c3)n2)cn1", "> 7.00"],
  ["Cn1cc(-n2ccc(=O)c(COc3ccc4ncc(-c5cnn(C6CN(C(=O)OC(C)(C)C)C6)c5)cc4c3)n2)cn1", "> 7.00"],
  ["Cn1cc(-n2ccc(=O)c(COc3cc(F)c4ncccc4c3)n2)cn1", "5.52 to 6.00"],
  ["Cn1cc(-n2ccc(=O)c(COc3cccc4cnccc34)n2)cn1", "5.52 to 6.00"],
  ["CCn1cc(-n2ccc(=O)c(COc3ccc4ncc(-c5ccc(F)cc5)cc4c3)n2)cn1", "> 7.00"],
  ["Cn1cc(-n2ccc(=O)c(CCc3ccnc4[nH]ccc34)n2)cn1", "5.52 to 6.00"],
  ["CCn1cc(-n2ccc(=O)c(COc3ccc4ncc(OCc5noc(C)n5)cc4c3)n2)cn1", "> 7.00"],
  ["N#Cc1cccc(-n2ccc(=O)c(COc3ccc4ncccc4c3)n2)c1", "> 7.00"],
  ["CC(Oc1nn(-c2cnn(C)c2)ccc1=O)c1ccc2ncccc2c1 (centres unmarked) [Example 130]", "6.00 to 7.00"],
  ["COc1ccnc2ccc(C(C)Oc3nn(-c4cnn(C)c4)ccc3=O)cc12 (centres unmarked) [Example 131]", "6.00 to 7.00"],
  ["Cn1cc(-n2ccc(=O)c(COc3ccc4ncc5c(c4c3)OCCO5)n2)cn1", "> 7.00"],
  ["COCCOc1cnc2ccc(OCc3nn(-c4ccc(F)c(F)c4)ccc3=O)cc2c1", "> 7.00"],
  ["Cn1cc(-n2ccc(=O)c(COc3ccc([N+](=O)[O-])cc3)n2)cn1", "5.52 to 6.00"],
  ["C=C(Cc1nn(-c2cnn(C)c2)ccc1=O)c1ccc2ncccc2c1", "6.00 to 7.00"],
  ["CCOCCOc1ccnc2ccc(OCc3nn(-c4cnn(C)c4)ccc3=O)cc12", "6.00 to 7.00"],
  ["COCCOc1cnc2ccc(OCc3nn(-c4cnn(C)c4)ccc3=O)cc2n1", "> 7.00"],
  ["CCOc1cnc2ccc(NCc3nn(-c4cnn(C)c4)ccc3=O)cc2c1", "6.00 to 7.00"],
  ["Cn1cc(-n2ccc(=O)c(CCc3ccc4nccnc4c3)n2)cn1", "5.52 to 6.00"],
  ["Cn1cc(-n2ccc(=O)c(COc3ccc4ncc(-n5cc(COC6CCNCC6)nn5)cc4c3)n2)cn1", "6.00 to 7.00"],
  ["CCOc1cnc2ccc(CCc3nn(-c4cnn(C)c4)ccc3=O)cc2c1", "> 7.00"],
  ["CCn1cc(-n2ccc(=O)c(COc3ccc4ncc(-c5cscn5)cc4c3)n2)cn1", "> 7.00"],
  ["COCCOc1cnc2ccc(OCc3nn(-c4cnn(C)c4)ccc3=O)cc2c1", "> 7.00"],
  ["COCCOc1cnc2ccc(OCc3nn(-c4cc(F)cc(F)c4)ccc3=O)cc2c1", "> 7.00"],
  ["Cc1cnc2ccc(OCc3nn(-c4cnn(C)c4)ccc3=O)cc2c1", "> 7.00"]
]}

###

// reported pIC50 for each item listed
target: human c-Met (Homo sapiens); construct: Recombinant GST-tagged cytosolic domains of human c-Met; 6xHis; assay: in vitro kinase assay (homogeneous time-resolved tyrosine kinase assay, METKA); conditions: recombinant GST-tagged c-Met cytosolic domain, HTRF, 50 μM MgATP; read-out: Biological Activity (METKA IC50) Activity Code
pIC50: −log10 of the molar value.

{"columns": ["COMPOUND", "TARGET DESC", "pIC50"],
 "data": [
  ["COCCOc1cnc2ccc(OCc3nn(-c4cc(F)cc(C#N)c4)ccc3=O)cc2c1 [Example 28]", "human c-Met (Homo sapiens)", "> 7.00"],
  ["Cn1cc(-n2ccc(=O)c(COc3ccc(NCCCCO)cc3)n2)cn1 [Example 116]", "human c-Met (Homo sapiens)", "5.52 to 6.00"],
  ["CCn1cc(-n2ccc(=O)c(COc3ccc4ncc(-c5ccc(C#N)nc5)cc4c3)n2)cn1 [Example 81]", "human c-Met (Homo sapiens)", "> 7.00"],
  ["CCn1cc(-n2ccc(=O)c(OCc3ccc4ncccc4c3)n2)cn1 [Example 128]", "human c-Met (Homo sapiens)", "6.00 to 7.00"],
  ["CCn1cc(-n2ccc(=O)c(COc3ccc4ncc(-c5ccccc5)cc4c3)n2)cn1 [Example 91]", "human c-Met (Homo sapiens)", "> 7.00"],
  ["COc1ccnc2ccc(OCc3nn(-c4cnn(C)c4)ccc3=O)cc12 [Example 48]", "human c-Met (Homo sapiens)", "> 7.00"],
  ["COC(=O)C(Cc1nn(-c2cnn(C)c2)ccc1=O)c1ccc2ncccc2c1 (stereo not drawn) [Example 150]", "human c-Met (Homo sapiens)", "5.52 to 6.00"],
  ["CCn1cc(-n2ccc(=O)c(COc3ccc4ncc(-c5ccccc5C)cc4c3)n2)cn1 [Example 84]", "human c-Met (Homo sapiens)", "> 7.00"],
  ["CC(Oc1ccc2ncccc2c1)c1nn(-c2cccc(Br)c2)ccc1=O (single isomer, unassigned) [Example 113]", "human c-Met (Homo sapiens)", "5.52 to 6.00"],
  ["CCn1cc(-n2ccc(=O)c(COc3ccc4ncc(-c5cncnc5)cc4c3)n2)cn1 [Example 85]", "human c-Met (Homo sapiens)", "> 7.00"],
  ["CCn1cc(-n2ccc(=O)c(COc3ccc4ncc(-c5cnn(CCOC)c5)cc4c3)n2)cn1 [Example 77]", "human c-Met (Homo sapiens)", "> 7.00"],
  ["Cn1cc(-n2ccc(=O)c(COc3ccc4ncc(OC(F)F)cc4c3)n2)cn1 [Example 66]", "human c-Met (Homo sapiens)", "> 7.00"]
]}

###

Each item that follows carries a reported pIC50.
target: human c-Met (Homo sapiens, UniProt P08581); construct: Recombinant GST-tagged cytosolic domains of human c-Met; 6xHis; assay: in vitro kinase assay (homogeneous time-resolved tyrosine kinase assay, METKA); details: recombinant GST-tagged c-Met cytosolic domain, HTRF, 50 μM MgATP; read-out: Biological Activity (METKA IC50) Activity Code
Sequence (P08581 956-1390 limits assumed): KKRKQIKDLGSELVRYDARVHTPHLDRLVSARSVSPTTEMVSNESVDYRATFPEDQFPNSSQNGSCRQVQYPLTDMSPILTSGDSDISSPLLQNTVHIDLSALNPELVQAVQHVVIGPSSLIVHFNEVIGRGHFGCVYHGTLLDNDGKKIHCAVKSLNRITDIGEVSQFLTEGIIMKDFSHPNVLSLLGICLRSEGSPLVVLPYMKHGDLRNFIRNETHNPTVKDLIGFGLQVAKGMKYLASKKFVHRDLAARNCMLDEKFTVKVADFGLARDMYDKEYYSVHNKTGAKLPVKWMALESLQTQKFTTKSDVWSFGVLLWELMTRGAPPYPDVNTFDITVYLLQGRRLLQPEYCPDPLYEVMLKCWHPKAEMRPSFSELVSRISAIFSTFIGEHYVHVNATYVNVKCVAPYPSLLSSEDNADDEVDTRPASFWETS
pIC50: −log10 of the molar value.
MEASUREMENT TYPE: pIC50

{"columns": ["COMPOUND", "MEAS VALUE"],
 "data": [
  ["CCn1cc(-n2ccc(=O)c(COc3ccc4ncc(-c5cccc(F)c5)cc4c3)n2)cn1 [Example 90]", "> 7.00"],
  ["Cn1cc(-n2ccc(=O)c(COc3ccc4ncc(-n5cnnc5)cc4c3)n2)cn1 [Example 39]", "6.00 to 7.00"],
  ["CCn1cc(-n2ccc(=O)c(COc3ccc4ncc(OC5CCOC5)cc4c3)n2)cn1 (stereo not shown) [Example 69]", "> 7.00"],
  ["CCn1cc(-n2ccc(=O)c(COc3ccc4ncc(Oc5ccccn5)cc4c3)n2)cn1 [Example 67]", "> 7.00"],
  ["Cn1cc(-n2ccc(=O)c(COc3ccc(C(=O)NCC(F)(F)F)cc3)n2)cn1 [Example 18]", "5.52 to 6.00"],
  ["N#Cc1cc(Cl)cc(-n2ccc(=O)c(COc3ccc4ncccc4c3)n2)c1 [Example 6]", "> 7.00"],
  ["CC(Oc1nn(-c2cnn(C)c2)ccc1=O)c1ccc2ncc(-c3cnn(C)c3)cc2c1 (stereo not shown) [Example 136]", "> 7.00"],
  ["COc1ccnc2ccc(C(C)Oc3nn(-c4cnn(C)c4)ccc3=O)cc12 (single isomer, unassigned) [Example 145]", "> 7.00"],
  ["Cn1cc(-n2ccc(=O)c(COc3ccc4ncc(NC(=O)Nc5cnc6ccc(OCc7nn(-c8cnn(C)c8)ccc7=O)cc6c5)cc4c3)n2)cn1 [Example 111]", "> 7.00"],
  ["Cn1cc(-c2cnc3ccc(OCc4nn(-c5cnn(C)c5)ccc4=O)cc3c2)cn1 [Example 75]", "> 7.00"],
  ["Cn1cc(-n2ccc(=O)c(SCc3ccc4ncccc4c3)n2)cn1 [Example 149]", "> 7.00"],
  ["Cc1ccc2cc(OCc3nn(-c4cnn(C)c4)ccc3=O)ccc2n1 [Example 13]", "6.00 to 7.00"],
  ["CC(Oc1ccc2ncccc2c1)c1nn(-c2cccc(Br)c2)ccc1=O (single isomer, unassigned) [Example 114]", "5.52 to 6.00"],
  ["Cn1cc(-n2ccc(=O)c(COc3ccc4ncc(F)cc4c3)n2)cn1 [Example 37]", "> 7.00"],
  ["Cn1cc(-n2ccc(=O)c(OCc3ccc4ncccc4c3)n2)cn1 [Example 127]", "5.52 to 6.00"],
  ["COc1ccc2cc(OCc3nn(-c4cnn(C)c4)ccc3=O)ccc2n1 [Example 49]", "6.00 to 7.00"]
]}

Source: patent US20130116231A1
